Reported melting point is given for each of the following compounds.
measure: melting point

CC(NS(=O)(=O)c1ccc(-c2c(C#N)c3ccc(C4CC4)cc3n2C2CCCC2)nc1)C(F)(F)F (centres unmarked)    166 to 170 °C
CCc1cc2c(cc1F)c(C#N)c(-c1ccc(S(=O)(=O)N[C@@H](C)C(F)(F)F)cn1)n2-c1nccs1    187 to 191 °C
CCc1cc2c(cc1F)c(C#N)c(-c1ccc(S(=O)(=O)N[C@@H](C)C(F)(F)F)cn1)n2-c1cccc(C#N)c1    244 to 248 °C
C[C@H](NS(=O)(=O)c1ccc(-c2c(C#N)c3ccc(C4CC4)cc3n2C2CCC2)nc1)C(F)(F)F    191 to 197 °C
N#Cc1c(-c2ncc(S(=O)(=O)NC(CF)CF)cn2)n(C2CCCCC2)c2cc(OC(F)(F)F)ccc12    168 to 170 °C
Cc1ccc2c(c1)c(C#N)c(-c1ccc(S(=O)(=O)N[C@@H](C)C(F)(F)F)cn1)n2-c1ncccn1    174 to 179 °C
CC(C)(CF)NS(=O)(=O)c1ccc(-c2c(C#N)c3ccc(OC(F)F)cc3n2C2CCC2)nc1    171 to 178 °C
Cc1cc2c(C#N)c(-c3ccc(S(=O)(=O)N[C@@H](C)C(F)(F)F)cn3)n(-c3cnccn3)c2cc1F    233 to 238 °C
CCc1cc2c(cc1F)c(C#N)c(-c1ccc(S(=O)(=O)N[C@@H](C)C(F)(F)F)cn1)n2-c1ccc(F)c(Cl)c1    228 to 232 °C
Cc1ccc2c(c1F)c(C#N)c(-c1ccc(S(=O)(=O)N[C@@H](C)C(F)(F)F)cn1)n2C1CCCC1    186 to 197 °C
CC(C)n1c(-c2ncc(S(=O)(=O)N[C@@H](C)C(F)(F)F)cn2)c(C#N)c2ccc(OC(F)F)cc21    219 to 221 °C

---

Reported melting point is given for each of the following compounds.
measure: melting point

C[C@@H](NS(=O)(=O)c1ccc(-c2c(C#N)c3cc(F)c(C4CC4)cc3n2C2CCC2)nc1)C(F)(F)F [compound 631]    190 to 194 °C
Cc1cc2c(C#N)c(-c3ccc(S(=O)(=O)NC(CF)CF)cn3)n(C3CCC3)c2cc1F [compound 493]    209 to 213 °C
Cc1cc2c(C(N)=O)c(-c3ccc(S(=O)(=O)N[C@@H](C)C(F)(F)F)cn3)n(-c3ncccn3)c2cc1F [compound 918]    245 to 249 °C
CCc1cc2c(cc1F)c(C(N)=O)c(-c1ccc(NS(=O)(=O)C(C)(C)C)nc1)n2[C@H](C)C1CC1 [compound 1104]    255.5 to 259 °C
CC(C)(C)S(=O)(=O)Nc1ccc(-c2c(C#N)c3ccc(Oc4ncccn4)cc3n2C2CCC2)cn1 [compound 268]    275 to 277 °C
Cc1cc2c(cc1F)c(C(N)=O)c(-c1ccc(S(=O)(=O)N[C@@H](C)C(F)(F)F)cn1)n2-c1cccc(F)n1 [compound 877]    210 to 214 °C
CCc1cc2c(cc1F)c(C#N)c(-c1ccc(S(=O)(=O)NC(C)(C)C)cn1)n2C1CCC1 [compound 764]    186 to 188 °C
Cc1ccc2c(C#N)c(-c3ncc(S(=O)(=O)N[C@@H](C)C(F)(F)F)cn3)n(-c3ccccn3)c2c1 [compound 475]    210 to 212 °C
Cc1cc2c(cc1F)c(C#N)c(-c1ccc(S(=O)(=O)N[C@@H](C)C(F)(F)F)cn1)n2-c1ccc(S(N)(=O)=O)s1 [compound 1034]    131.6 to 137.7 °C
CC(C)n1c(-c2ccc(S(=O)(=O)N[C@@H](C)C(F)(F)F)cn2)c(C(N)=O)c2c(F)cc(OC(F)F)cc21 [compound 839]    197 to 198 °C

---

measure: melting point

C[C@@H](NS(=O)(=O)c1ccc(-c2c(C#N)c3cc(F)ccc3n2C2C=CCCC2)nc1)C(F)(F)F (stereo partly drawn)    187 to 188 °C
N#Cc1c(-c2ncc(S(=O)(=O)NC(CF)CF)cn2)n(C2CCC2)c2cc(OC(F)F)c(Cl)cc12    228 to 232 °C
N#Cc1c(-c2ncc(S(=O)(=O)NC(CF)CF)cn2)n(C2CCC2)c2cc(C3CC3)ccc12    165 to 168 °C
CCc1cc2c(cc1F)c(C(N)=O)c(-c1ccc(S(=O)(=O)N[C@@H](C)C(F)(F)F)cn1)n2-c1cc(C)ccn1    137 to 145 °C
Cc1cc2c(cc1F)c(C#N)c(-c1ccc(S(=O)(=O)N[C@@H](C)C(F)(F)F)cn1)n2-c1cccc(F)n1    210 to 212 °C
C[C@@H](NS(=O)(=O)c1ccc(-c2c(C#N)c3ccc(C4CC4)cc3n2C2CCCC2)nc1)C(F)(F)F    178 to 181 °C
N#Cc1c(-c2ccc(S(=O)(=O)NC(CF)CF)cn2)n(C2CCCC2)c2cc(C3CC3)ccc12    194 to 200 °C
CC(C)NS(=O)(=O)c1ccc(-c2c(C#N)c3ccc(C(F)F)cc3n2C2CCC2)nc1    212 to 220 °C
Cc1cc2c(cc1F)c(C(N)=O)c(-c1ccc(S(N)(=O)=O)cn1)n2C1CCCCC1    254 to 257 °C
Cc1ccc2c(c1)c(C#N)c(-c1ncc(S(=O)(=O)N[C@@H](C)C3CC3)cn1)n2C1CCC1    168 to 171 °C
Cc1csc(-n2c(-c3ccc(S(=O)(=O)N[C@@H](C)C(F)(F)F)cn3)c(C#N)c3cc(F)c(C)cc32)n1    206.3 to 211.7 °C
Cc1cc(F)c2c(C#N)c(-c3ccc(S(=O)(=O)N[C@@H](C)C(F)(F)F)cn3)n(C3CCCC3)c2c1    207 to 211 °C
C[C@H](NS(=O)(=O)c1ccc(-c2c(C#N)c3cc(F)c(Br)cc3n2-c2ncccn2)nc1)C(F)(F)F    224 to 226 °C
N#Cc1c(-c2ncc(S(=O)(=O)NC(CF)CF)cn2)n(C2CCCC2)c2cc(Cl)ccc12    233 to 238 °C
N#Cc1c(-c2ncc(S(=O)(=O)NC(CF)CF)cn2)n(C2CCC2)c2cc(Cl)c(F)cc12    > 245 °C (dec.)
CC(C)NS(=O)(=O)c1ccc(-c2c(C#N)c3ccc(C#N)cc3n2CC2CC2)nc1    190 to 192 °C
COc1ccc2c(C#N)c(-c3ccc(S(=O)(=O)N[C@@H](C)C4CC4)cn3)n(C3CCCC3)c2c1    199 to 209 °C
COc1ccc2c(C#N)c(-c3ncc(S(=O)(=O)NC(C)C)cn3)n(C3CCC3)c2c1    200 to 202 °C
CCc1cc2c(cc1F)c(C#N)c(-c1ccc(S(=O)(=O)N[C@@H](C)C(F)(F)F)cn1)n2-c1ccc(F)cn1    210 to 212 °C
Cc1ccc2c(c1)c(C#N)c(-c1ccc(S(=O)(=O)N[C@@H](C)C(F)(F)F)cn1)n2-c1cnccn1    236 to 241 °C
CC(C)NS(=O)(=O)c1ccc(-c2c(C#N)c3ccc(OC(F)(F)F)cc3n2C2CCC2)nc1    191 to 193 °C

---

Reported melting point is given for each of the following molecules.
measure: melting point

CC(C)S(=O)(=O)Nc1ccc(-c2c(C#N)c3ccc(OCC(F)(F)F)cc3n2CC2CC2)nc1    188 to 193 °C
Cc1ccc2c(C#N)c(-c3ccc(S(=O)(=O)N[C@@H](C)C(F)(F)F)cn3)n(C3CCCC3)c2c1F    191 to 195 °C
Cc1ccc2c(C#N)c(-c3ncc(S(=O)(=O)N[C@H](C)C(F)(F)F)cn3)n(C3CCC3)c2c1    143 to 145 °C
CCS(=O)(=O)Nc1ccc(-c2c(C#N)c3ccc(OCC(F)(F)F)cc3n2CC2CC2)nc1    190 to 195 °C
CC(C)(NS(=O)(=O)c1ccc(-c2c(C#N)c3ccc(OC(F)F)cc3n2-c2ncccn2)nc1)C(F)(F)F    179 to 180 °C
CCc1ccc2c(C#N)c(-c3ccc(S(=O)(=O)NC(CF)CF)cn3)n(C3CCCC3)c2c1    204.5 to 205 °C
Cc1cc2c(cc1F)c(C(N)=O)c(-c1ccc(S(=O)(=O)NC(C)(C)C(F)(F)F)cn1)n2C1CCOCC1    200 to 206 °C
CCc1cc2c(cc1F)c(C(N)=O)c(-c1ccc(S(=O)(=O)N[C@@H](C)C(F)(F)F)cn1)n2-c1ccc(Cl)cc1    240 to 247 °C
CC(C)c1ccc2c(C#N)c(-c3ncc(S(=O)(=O)N[C@@H](C)C(F)(F)F)cn3)n(C3CCC3)c2c1    217 to 222 °C
CCCn1c(-c2ncc(S(=O)(=O)NC(CF)CF)cn2)c(C#N)c2ccc(OC(F)F)cc21    177 to 179 °C
N#Cc1c(-c2ncc(S(=O)(=O)NC(CF)CF)cn2)n(C2CCCC2)c2ccc(C(F)F)cc12    176 to 177 °C
CC(C)NS(=O)(=O)c1cnc(-c2c(C#N)c3ccc(C(F)F)cc3n2C2CCC2)nc1    221 to 227 °C
CCc1cc2c(cc1F)c(C#N)c(-c1ccc(S(=O)(=O)N[C@@H](C)C(F)(F)F)c(C)n1)n2-c1ccccn1    219 to 224 °C
Cc1ccc2c(C#N)c(-c3ccc(S(=O)(=O)N[C@H](C)C(F)(F)F)cn3)n(-c3ncccn3)c2c1    196 to 198 °C
Cc1ccc2c(C#N)c(-c3ncc(S(=O)(=O)N[C@@H](C)C(F)(F)F)cn3)n(C(C)C)c2c1    235 to 236 °C
CCc1cc2c(cc1F)c(C#N)c(-c1ccc(S(=O)(=O)N[C@@H](C)C(F)(F)F)cn1)n2-c1ccc(F)cc1    236 to 243 °C
Cc1ccc2c(C#N)c(-c3ncc(S(=O)(=O)N[C@H](C)C(F)(F)F)cn3)n(C3CCCC3)c2c1    116 to 118 °C
CC(C)n1c(-c2ccc(S(=O)(=O)NC(CF)CF)cn2)c(C#N)c2ccc(Cl)cc21    200 to 202 °C
Cc1cc2c(cc1F)c(C(N)=O)c(-c1ccc(S(=O)(=O)N[C@@H](C)C(F)(F)F)cn1)n2C1CCOCC1    261 to 264 °C
CNC(=O)c1c(-c2ncc(S(=O)(=O)NC(C)(C)C)cn2)n(C2CCC2)c2cc(C)c(F)cc12    211 to 213 °C
N#Cc1c(-c2ncc(S(=O)(=O)NC(CF)CF)cn2)n(C2CCCC2)c2ccc(F)cc12    201 to 206 °C
N#Cc1c(-c2ncc(S(=O)(=O)NC(CF)CF)cn2)n(C2CCCCC2)c2cc(C3CC3)ccc12    > 200 °C (dec.)
